Test system: MOLT-4 cells
Experiment: Growth inhibition, MOLT-4 cells
Format: cell-based, human
Settings: Homo sapiens, MOLT-4, 72 hours, cell counting
Property Name: IC50

// IC50 lookup, compound = COC(=O)C(C)NP(=O)(OCC1OC(n2ccc(=O)[nH]c2=O)C(F)C1O)Oc1ccccc1 (stereo not shown) , result: < 60 µM

----------
Test system: U-937 cells
Assay: Growth inhibition, U-937 cells
Type: cell-based, human
Details: Homo sapiens, 72 hours, cell counting
pIC50: −log10 of the molar value.
Property Name: pIC50

Value of pIC50 reported for the compound COC(=O)C(C)NP(=O)(OCC1OC(n2ccc(=O)[nH]c2=O)C(F)C1O)Oc1ccccc1 (stereo not shown) is > 4.22
